Assay: in vitro
Details: dog
measured-quantity: viability at 1 day, 11.11 µM (%)
Reply numerically in %, unit not repeated.

Exam item: Requested field: viability at 1 day, 11.11 µM. Item: CCc1cc2c(cc1-c1cc3ccc(OC)c(OC)c3c(=O)n1C)OCO2
Marked response: 80

====

System: B/Lee/40 (Lee)
Assay: microbe, parasite or virus in culture
Assay type: cell-based, influenza B virus
Conditions: unidentified influenza virus, MDCK, read-out: EC50 against Influenza Virus Lee
pEC50: −log10 of the molar value.
Recorded pEC50, one value per entry.

Some solved entries appear below for comparison.
smiles_notation=CCc1cc2c(cc1-c1cc3ccc(OC)c(O)c3c(=O)n1C)OCO2 measured_quantity=pEC50 test_result="< 3.96"
smiles_notation=Cc1ccc2c(=O)[nH]c(-c3c(C)cccc3C)c(Br)c2c1 measured_quantity=pEC50 test_result="< 3.52"
smiles_notation=Cc1ccc2c(=O)[nH]c(-c3c(C)cccc3C)cc2c1 measured_quantity=pEC50 test_result="< 3.52"
smiles_notation=COc1cc2cc(-c3ccccc3O)[nH]c(=O)c2cc1OC measured_quantity=pEC50 test_result="< 3.52"
smiles_notation=CN(C)c1cccc2c(=O)[nH]c(-c3ccc(Cl)cc3)cc12 measured_quantity=pEC50 test_result="< 3.52"
smiles_notation=O=c1[nH]c(-c2ccccc2O)cc2ccccc12 measured_quantity=pEC50 test_result=4.19

# context switch: different compound, same pEC50
Exam item: Requested field: pEC50. Item: C=Cc1cc2c(cc1-c1cc3ccc(OC)c(OC)c3c(=O)n1C)OCO2
Marked response: 5.96
